# EC (2-fold luciferase activity) values compiled below
tested on: promoter region of the gene encoding human apoAI; experiment: Activity to enhance the production of human apoAI: apoAI promoter-luciferase reporter assay in HepG2 cells; assay type: cell-based; conditions: minimum effective dose: concentration that intensified luciferase activity twice compared to control, 24 hours incubation, 0 to 10 μg/mL, read-out: MED

COMPOUND	UNIT_DESCRIPTOR	EC (2-fold luciferase activity)
COc1ccc(-c2nc(-c3ccncc3)no2)cc1 [Compound 124OD35-13]	µM	0.7
c1ccc(-c2ccc(-c3ccccc3)o2)cc1 [Compound F25-10]	µM	2.5
c1ccc(-c2cc(-c3ccccn3)[nH]n2)nc1 [PZ35-5]	µM	1.5
